molecular target: Full length human recombinant PIKFYVE (Homo sapiens, UniProt Q9Y2I7); construct: Full length human recombinant PIKFYVE; experiment: Inhibition of PIKfyve (microfluidic electrophoresis kinase assay, PI3P/PS substrate); conditions: 12 concentrations
Sequence (Q9Y2I7 whole entry): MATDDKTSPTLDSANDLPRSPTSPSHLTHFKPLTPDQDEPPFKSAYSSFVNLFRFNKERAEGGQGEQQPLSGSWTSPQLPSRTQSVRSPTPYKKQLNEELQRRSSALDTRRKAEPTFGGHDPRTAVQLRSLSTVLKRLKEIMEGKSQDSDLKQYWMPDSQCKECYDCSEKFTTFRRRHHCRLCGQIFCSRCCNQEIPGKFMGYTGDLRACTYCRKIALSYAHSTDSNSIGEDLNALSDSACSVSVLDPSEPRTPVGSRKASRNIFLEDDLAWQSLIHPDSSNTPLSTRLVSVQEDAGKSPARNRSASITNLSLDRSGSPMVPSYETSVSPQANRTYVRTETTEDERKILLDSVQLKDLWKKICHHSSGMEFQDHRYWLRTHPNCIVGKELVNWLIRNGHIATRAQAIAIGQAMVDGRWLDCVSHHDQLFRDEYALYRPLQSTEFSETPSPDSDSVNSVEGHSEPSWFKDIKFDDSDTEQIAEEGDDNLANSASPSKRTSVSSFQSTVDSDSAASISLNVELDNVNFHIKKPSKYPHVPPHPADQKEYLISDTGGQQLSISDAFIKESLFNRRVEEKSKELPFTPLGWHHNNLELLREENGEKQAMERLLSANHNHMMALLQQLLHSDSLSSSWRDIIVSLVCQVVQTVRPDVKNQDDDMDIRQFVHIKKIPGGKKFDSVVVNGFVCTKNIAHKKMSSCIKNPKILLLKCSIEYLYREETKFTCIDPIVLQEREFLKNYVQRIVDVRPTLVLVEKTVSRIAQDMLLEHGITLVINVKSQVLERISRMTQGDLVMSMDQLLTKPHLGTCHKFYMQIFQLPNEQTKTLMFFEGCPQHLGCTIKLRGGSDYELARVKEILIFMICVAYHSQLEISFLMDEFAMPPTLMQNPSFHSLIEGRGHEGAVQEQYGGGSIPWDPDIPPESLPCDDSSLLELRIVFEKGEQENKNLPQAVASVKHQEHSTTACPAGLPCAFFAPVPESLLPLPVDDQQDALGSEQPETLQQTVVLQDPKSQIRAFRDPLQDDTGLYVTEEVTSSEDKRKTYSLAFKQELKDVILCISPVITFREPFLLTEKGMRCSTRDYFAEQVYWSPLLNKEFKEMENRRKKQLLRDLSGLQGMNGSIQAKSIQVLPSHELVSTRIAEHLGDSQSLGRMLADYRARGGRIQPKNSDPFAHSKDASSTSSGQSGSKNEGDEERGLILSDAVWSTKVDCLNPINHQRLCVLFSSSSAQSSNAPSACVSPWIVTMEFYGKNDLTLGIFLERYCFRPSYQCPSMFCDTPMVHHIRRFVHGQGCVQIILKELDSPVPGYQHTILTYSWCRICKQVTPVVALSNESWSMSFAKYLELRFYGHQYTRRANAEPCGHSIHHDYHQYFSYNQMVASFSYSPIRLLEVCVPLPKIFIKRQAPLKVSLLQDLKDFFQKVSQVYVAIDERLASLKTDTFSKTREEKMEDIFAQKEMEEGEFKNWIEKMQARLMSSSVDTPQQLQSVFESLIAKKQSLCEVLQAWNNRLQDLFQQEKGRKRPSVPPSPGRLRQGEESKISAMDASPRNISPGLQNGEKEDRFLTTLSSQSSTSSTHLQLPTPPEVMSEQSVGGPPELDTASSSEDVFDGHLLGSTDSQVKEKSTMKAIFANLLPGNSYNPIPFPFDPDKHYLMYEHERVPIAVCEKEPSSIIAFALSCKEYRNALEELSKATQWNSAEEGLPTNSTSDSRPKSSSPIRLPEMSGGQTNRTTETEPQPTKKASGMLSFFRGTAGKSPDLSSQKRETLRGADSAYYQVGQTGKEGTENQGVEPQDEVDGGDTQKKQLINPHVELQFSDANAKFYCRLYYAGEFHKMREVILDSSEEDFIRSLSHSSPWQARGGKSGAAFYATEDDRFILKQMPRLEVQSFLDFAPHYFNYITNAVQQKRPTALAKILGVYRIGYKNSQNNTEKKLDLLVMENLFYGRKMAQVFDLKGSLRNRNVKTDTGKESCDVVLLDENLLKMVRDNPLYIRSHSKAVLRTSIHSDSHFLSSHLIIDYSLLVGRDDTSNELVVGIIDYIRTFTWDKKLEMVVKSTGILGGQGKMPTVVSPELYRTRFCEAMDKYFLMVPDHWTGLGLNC
Property: IC50 (nM)

a = Cn1ccc(-c2cc3nc(-n4cc(-c5cccc(Cl)c5)cn4)nc(N4CCOCC4)c3o2)n1 [Compound 192]
b = CNC(=O)c1cc2nc(Nc3cc(Cc4ccccc4)n[nH]3)nc(N3CCOCC3)c2o1 [Compound 82]
Lab note: check whether a or b shows the higher recorded IC50. Response format: the label of the selected entry. b
(b: 1390 nM, a: 21.7 nM)

Measured values drawn from patent US20230146395A1 for this set.
